All values here come from ChEMBL document CHEMBL1140315.

target: Mitogen-activated protein kinase 3 (Homo sapiens, UniProt P27361)
Sequence (P27361 whole entry): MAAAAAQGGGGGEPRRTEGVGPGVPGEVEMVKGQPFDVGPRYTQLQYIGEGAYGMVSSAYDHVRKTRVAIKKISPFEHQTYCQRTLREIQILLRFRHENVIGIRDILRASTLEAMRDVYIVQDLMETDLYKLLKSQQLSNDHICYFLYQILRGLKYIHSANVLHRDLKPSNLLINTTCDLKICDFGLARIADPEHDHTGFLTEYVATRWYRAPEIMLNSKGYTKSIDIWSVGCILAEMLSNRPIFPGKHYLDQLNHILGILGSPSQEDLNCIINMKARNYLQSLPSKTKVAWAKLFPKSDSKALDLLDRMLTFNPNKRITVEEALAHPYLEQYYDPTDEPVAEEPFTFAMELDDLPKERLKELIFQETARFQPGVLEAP
measurement description: Inhibition of ERK1 kinase
pIC50: −log10 of the molar value.
parameter measured: pIC50

[Q] Please look at this compound and report its pIC50: N#C/C(=C1/Nc2ccccc2S1)c1ccnc(NCCc2cccnc2)n1.O=C(O)C(F)(F)F.O=C(O)C(F)(F)F
[A] < 5.00

====

target: Mitogen-activated protein kinase 10 (Rattus norvegicus, UniProt P49187)
Sequence (P49187 whole entry): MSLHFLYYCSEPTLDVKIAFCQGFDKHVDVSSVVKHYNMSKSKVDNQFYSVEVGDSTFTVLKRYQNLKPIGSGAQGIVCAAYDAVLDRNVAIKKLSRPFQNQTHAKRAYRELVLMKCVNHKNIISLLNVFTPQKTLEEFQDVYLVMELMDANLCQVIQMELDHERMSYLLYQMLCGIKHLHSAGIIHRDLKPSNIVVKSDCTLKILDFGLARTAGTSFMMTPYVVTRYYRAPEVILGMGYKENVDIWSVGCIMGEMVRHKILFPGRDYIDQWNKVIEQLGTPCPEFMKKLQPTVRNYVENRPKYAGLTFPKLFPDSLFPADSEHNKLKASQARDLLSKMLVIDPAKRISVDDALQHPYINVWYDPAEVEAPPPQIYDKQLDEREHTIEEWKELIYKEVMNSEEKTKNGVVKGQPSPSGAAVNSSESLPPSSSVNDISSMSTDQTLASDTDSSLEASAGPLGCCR
measurement description: Inhibition of rat c-Jun N-terminal kinase 3
parameter measured: IC50 (nM)
One number for each entry, in nM.

Would you please look over these solved cases?
{"item smiles": "N#C/C(=C1/Nc2ccccc2S1)c1ccnc(N2CCOCC2)n1", "target": "Mitogen-activated protein kinase 10 (Rattus norvegicus, UniProt P49187)", "scale unit": "nM", "IC50": 2900}
{"item smiles": "COC1CCN(c2nccc(/C(C#N)=C3\\Nc4ccccc4S3)n2)CC1", "target": "Mitogen-activated protein kinase 10 (Rattus norvegicus, UniProt P49187)", "scale unit": "nM", "IC50": 7200}
{"item smiles": "N#C/C(=C1/Nc2ccccc2S1)c1ccnc(NCCCn2ccnc2)n1", "target": "Mitogen-activated protein kinase 10 (Rattus norvegicus, UniProt P49187)", "scale unit": "nM", "IC50": 147}
{"item smiles": "N#C/C(=C1/Nc2ccccc2S1)c1ccnc(NCCN2CCOCC2)n1", "target": "Mitogen-activated protein kinase 10 (Rattus norvegicus, UniProt P49187)", "scale unit": "nM", "IC50": 760}
{"item smiles": "CN(C)CCNc1nccc(/C(C#N)=C2\\Nc3ccccc3S2)n1", "target": "Mitogen-activated protein kinase 10 (Rattus norvegicus, UniProt P49187)", "scale unit": "nM", "IC50": 1300}

Here are 2 compounds. What values of IC50 were reported for them?
1. N#C/C(=C1/Nc2ccccc2S1)c1ccnc(NCc2ccncc2)n1
2. N#C/C(=C1/Nc2ccccc2S1)c1ccnc(NCCc2ccc([N+](=O)[O-])cc2)n1

[A]
[340, 600]

====

target: Mitogen-activated protein kinase 10 (Rattus norvegicus, UniProt P49187)
measurement description: Inhibition of rat c-Jun N-terminal kinase 3
parameter measured: pIC50
One number for each entry, as −log10 of the molar value.

Would you please look over these solved cases?
{"item smiles": "CNCCCN(C)c1nccc(/C(C#N)=C2\\Nc3ccccc3S2)n1", "parameter measured": "pIC50", "experimental result": 5.88}
{"item smiles": "N#C/C(=C1/Nc2cc(C(F)(F)F)ccc2S1)c1ccnc(Cl)n1", "parameter measured": "pIC50", "experimental result": 6.00}

Let us move to another entry and its pIC50.
[Q] Please look at this compound and report its pIC50: COCCNc1nccc(/C(C#N)=C2\Nc3ccccc3S2)n1
[A] 6.09

====

target: Mitogen-activated protein kinase 10 (Rattus norvegicus)
measurement description: Inhibition of rat c-Jun N-terminal kinase 3
pIC50: −log10 of the molar value.
Assignment: determine reported pIC50 for the given molecules.

Would you please look over these solved cases?
{"item smiles": "CCCNc1nccc(/C(C#N)=C2\\Nc3ccccc3S2)n1", "pIC50": "< 5.30"}
{"item smiles": "CCO/C(O)=C(\\c1ccnc(Cl)n1)c1nc2ccccc2s1", "pIC50": "< 5.30"}

Let us move to another entry and its pIC50.
[Q] Please look at this molecule and report its pIC50: Cc1ccc(CCNc2nccc(/C(C#N)=C3\Nc4ccccc4S3)n2)cc1
[A] < 5.30
